Test system: UO-31
test-description: NCI-60 antiproliferative screen (SRB)
Assay type: cell-based, human
test-settings: Homo sapiens; 10 µM single dose, 48 h; UO-31 (Renal); read-out: Growth inhibition (%)
parameter: inhibition at 10 µM (%)
Answers are plain numbers, in %.

compound: O=C1Nc2ccc(Cl)cc2C1=Cc1ccc(OCc2ccccn2)cc1 (mixture of isomers) [Compound 5g]
assay-target: UO-31
inhibition at 10 µM / %: 40.5

compound: O=C1Nc2cc(Cl)ccc2C1=Cc1ccc(OCc2ccccc2)cc1 (mixture of isomers) [Compound 5d]
assay-target: UO-31
inhibition at 10 µM / %: 23.8

compound: O=C1Nc2ccc(Cl)cc2C1=Cc1ccc(OCc2ccncc2)cc1 (mixture of isomers) [Compound 5o]
assay-target: UO-31
inhibition at 10 µM / %: 51.1

Provide inhibition at 10 µM values for the following items, in order.
1. O=C1Nc2ccc(F)cc2C1=Cc1ccc(OCc2ccccc2)cc1 (mixture of isomers) [Compound 5b]
2. O=C1Nc2cc(Cl)ccc2C1=Cc1ccc(OCc2ccccn2)cc1 (mixture of isomers) [Compound 5h]
3. O=C1Nc2ccc(F)cc2C1=Cc1ccc(OCc2ccncc2)cc1 (mixture of isomers) [Compound 5n]
4. O=C1Nc2ccccc2C1=Cc1ccc(OCc2ccncc2)cc1 (mixture of isomers) [Compound 5m]

Ans.
1: 2.55; 2: 38; 3: 54.8; 4: 44.7

---

Test system: HOP-62
test-description: NCI-60 antiproliferative screen (SRB)
Assay type: cell-based, human
test-settings: Homo sapiens; 10 µM single dose, 48 h; HOP-62 (NSCLC); read-out: Growth inhibition (%)
Rule: inhibition at 10 µM of 20% or more gives yes (1); anything lower gives no (0).

As a guide, the following entries are already answered.
compound: O=C1Nc2ccc(F)cc2C1=Cc1ccc(OCc2ccccn2)cc1 (mixture of isomers) [Compound 5f]
assay-target: HOP-62
qualitative-label: no (0)
//
compound: O=C1Nc2cc(Cl)ccc2C1=Cc1ccc(OCc2ccccc2)cc1 (mixture of isomers) [Compound 5d]
assay-target: HOP-62
qualitative-label: no (0)
//
compound: O=C1Nc2ccc(Cl)cc2C1=Cc1ccc(OCc2ccccn2)cc1 (mixture of isomers) [Compound 5g]
assay-target: HOP-62
qualitative-label: yes (1)
//
compound: O=C1Nc2cc(Cl)ccc2C1=Cc1ccc(OCc2ccncc2)cc1 (mixture of isomers) [Compound 5p]
assay-target: HOP-62
qualitative-label: yes (1)
//
compound: O=C1Nc2ccc(F)cc2C1=Cc1ccc(OCc2cccnc2)cc1 (mixture of isomers) [Compound 5j]
assay-target: HOP-62
qualitative-label: yes (1)

Qu. Record O=C1Nc2cc(Cl)ccc2C1=Cc1ccc(OCc2ccccn2)cc1 (mixture of isomers) [Compound 5h] ; criterion: inhibition at 10 µM no lower than 20%. Met?
Ans. no (0)

Qu. Could you please find out whether O=C1Nc2ccc(F)cc2C1=Cc1ccc(OCc2ccncc2)cc1 (mixture of isomers) [Compound 5n] has inhibition at 10 µM that meets 20% or exceeds it?
Ans. no (0)

Qu. Quick check, inhibition at 10 µM >= 20%? O=C1Nc2ccccc2C1=Cc1ccc(OCc2ccccc2)cc1 (mixture of isomers) [Compound 5a]
Ans. no (0)

Qu. Could you verify whether the entry O=C1Nc2ccc(F)cc2C1=Cc1ccc(OCc2ccccc2)cc1 (mixture of isomers) [Compound 5b] shows inhibition at 10 µM of no less than 20%?
Ans. no (0)

Qu. Is reported inhibition at 10 µM greater than or equal to 20% here: O=C1Nc2ccccc2C1=Cc1ccc(OCc2cccnc2)cc1 (mixture of isomers) [Compound 5i]
Ans. yes (1)

Qu. Does O=C1Nc2ccc(Cl)cc2C1=Cc1ccc(OCc2ccccc2)cc1 (mixture of isomers) [Compound 5c] have a reported inhibition at 10 µM of at least 20%?
Ans. no (0)

Qu. Evaluate O=C1Nc2ccc(Cl)cc2C1=Cc1ccc(OCc2cccnc2)cc1 (mixture of isomers) [Compound 5k] : inhibition at 10 µM at minimum 20%?
Ans. no (0)

Qu. Identify whether the reported inhibition at 10 µM of the following compound is 20% or greater: O=C1Nc2ccccc2C1=Cc1ccc(OCc2ccccn2)cc1 (mixture of isomers) [Compound 5e]
Ans. yes (1)

Qu. I'd appreciate it if you could say whether O=C1Nc2ccccc2C1=Cc1ccc(OCc2ccncc2)cc1 (mixture of isomers) [Compound 5m] has inhibition at 10 µM at least equal to 20%.
Ans. yes (1)

Qu. Please tell me: is the compound O=C1Nc2cc(Cl)ccc2C1=Cc1ccc(OCc2cccnc2)cc1 (mixture of isomers) [Compound 5l] at or over 20% in terms of inhibition at 10 µM?
Ans. yes (1)

Cited source for all entries: paper PMC11124822
